target: T1, human PCSK9 (proprotein convertase subtilisin kexin type 9) (human, UniProt Q8NBP7 31-692); experiment: FRET direct binding, anti-his6 antibody
T1 construct: Directly immobilized (SPR ProteOn), biotinylated (BLI), or in solution, depending on the assay; also called hPCSK9
T1 sequence (Q8NBP7 31-692 limits assumed): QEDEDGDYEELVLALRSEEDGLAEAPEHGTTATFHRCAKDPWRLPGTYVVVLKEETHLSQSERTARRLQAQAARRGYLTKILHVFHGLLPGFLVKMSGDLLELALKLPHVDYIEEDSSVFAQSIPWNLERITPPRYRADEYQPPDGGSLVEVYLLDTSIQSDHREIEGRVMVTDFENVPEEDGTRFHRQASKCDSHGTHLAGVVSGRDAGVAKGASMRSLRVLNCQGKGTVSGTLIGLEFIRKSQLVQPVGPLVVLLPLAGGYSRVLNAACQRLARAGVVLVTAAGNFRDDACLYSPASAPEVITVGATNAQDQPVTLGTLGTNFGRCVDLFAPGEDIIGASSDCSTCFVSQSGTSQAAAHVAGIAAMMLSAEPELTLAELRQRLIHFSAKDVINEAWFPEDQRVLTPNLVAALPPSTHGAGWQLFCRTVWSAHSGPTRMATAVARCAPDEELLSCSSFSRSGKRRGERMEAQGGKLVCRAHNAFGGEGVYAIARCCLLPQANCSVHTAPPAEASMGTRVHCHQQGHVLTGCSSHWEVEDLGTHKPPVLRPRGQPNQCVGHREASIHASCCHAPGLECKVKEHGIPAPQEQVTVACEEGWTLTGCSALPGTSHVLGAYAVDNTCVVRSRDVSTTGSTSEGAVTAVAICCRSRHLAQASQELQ
measuredQuantity: pEC50
The scale used: pEC50 is minus the common logarithm of the concentration in molar units.

2382H09 (designed binder, Anti-PCSK9 Adnectin, His6-tagged) MGVSDVPRDLEVVAATPTSLLISWDAPAAAYGYYRITYGETGGNSPVQEFTVPSSKGTATISGLKPGVDYTITVYAVEFDFPGSGYYHRPISINYRTEIDKPSQHHHHHH
8.44
2382G04 (designed binder, Anti-PCSK9 Adnectin, His6-tagged) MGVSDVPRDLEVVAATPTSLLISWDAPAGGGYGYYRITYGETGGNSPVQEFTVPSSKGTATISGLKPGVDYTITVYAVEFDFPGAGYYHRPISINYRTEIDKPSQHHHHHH
8.44

Now for the binder whose pEC50 we want.
Inquiry: Read the entry 2382B09 (designed binder, Anti-PCSK9 Adnectin, His6-tagged) MGVSDVPRDLEVVAATPTSLLISWDAPADAYGYYRITYGETGGNSPVQEFTVPVSKGTATISGLKPGVDYTITVYAVEFDYPGSGYYHRPISINYRTEIDKPSQHHHHHH and write its reported pEC50.
Reply text: 8.40
